The values you see were collected from the NIST ThermoML archive (doi:10.1016/j.jct.2016.01.017).

- Experiment: activity coefficient (dimensionless); of the first substance listed, at infinite dilution; xn = mol fraction of the nth substance listed
- Assay Conditions: 348.15 K; 100 kPa; Liquid; Chromatography; x1 = 0
Observable: activity coefficient

>>> result_value("CCCc1ccccc1 [propylbenzene] + CCCC[n+]1ccc(C#N)cc1.O=S(=O)([N-]S(=O)(=O)C(F)(F)F)C(F)(F)F")
4.33
>>> result_value("C#CCCC [1-pentyne] + CCCC[n+]1ccc(C#N)cc1.O=S(=O)([N-]S(=O)(=O)C(F)(F)F)C(F)(F)F")
3.7
>>> result_value("C=Cc1ccccc1 [styrene] + CCCC[n+]1ccc(C#N)cc1.O=S(=O)([N-]S(=O)(=O)C(F)(F)F)C(F)(F)F")
1.6
>>> result_value("CCC(=O)OC [methyl propanoate] + CCCC[n+]1ccc(C#N)cc1.O=S(=O)([N-]S(=O)(=O)C(F)(F)F)C(F)(F)F")
1.01
>>> result_value("C1CCCC1 [cyclopentane] + CCCC[n+]1ccc(C#N)cc1.O=S(=O)([N-]S(=O)(=O)C(F)(F)F)C(F)(F)F")
9.31
>>> result_value("C1CCCCCCC1 [cyclooctane] + CCCC[n+]1ccc(C#N)cc1.O=S(=O)([N-]S(=O)(=O)C(F)(F)F)C(F)(F)F")
22.4
>>> result_value("Cc1ccccc1C [1,2-dimethylbenzene] + CCCC[n+]1ccc(C#N)cc1.O=S(=O)([N-]S(=O)(=O)C(F)(F)F)C(F)(F)F")
2.21
>>> result_value("CCCC(=O)OC [methyl butanoate] + CCCC[n+]1ccc(C#N)cc1.O=S(=O)([N-]S(=O)(=O)C(F)(F)F)C(F)(F)F")
1.42
>>> result_value("C1=CCCCC1 [cyclohexene] + CCCC[n+]1ccc(C#N)cc1.O=S(=O)([N-]S(=O)(=O)C(F)(F)F)C(F)(F)F")
7.1
>>> result_value("CCCOCCC [dipropyl ether] + CCCC[n+]1ccc(C#N)cc1.O=S(=O)([N-]S(=O)(=O)C(F)(F)F)C(F)(F)F")
8.75
>>> result_value("c1ccncc1 [pyridine] + CCCC[n+]1ccc(C#N)cc1.O=S(=O)([N-]S(=O)(=O)C(F)(F)F)C(F)(F)F")
0.591
>>> result_value("C1COCCO1 [1,4-dioxane] + CCCC[n+]1ccc(C#N)cc1.O=S(=O)([N-]S(=O)(=O)C(F)(F)F)C(F)(F)F")
0.587
>>> result_value("Cc1cccc(C)c1 [1,3-dimethylbenzene] + CCCC[n+]1ccc(C#N)cc1.O=S(=O)([N-]S(=O)(=O)C(F)(F)F)C(F)(F)F")
2.6
>>> result_value("CCC[N+](=O)[O-] [1-nitropropane] + CCCC[n+]1ccc(C#N)cc1.O=S(=O)([N-]S(=O)(=O)C(F)(F)F)C(F)(F)F")
0.851
>>> result_value("CC(C)c1ccccc1 [isopropylbenzene] + CCCC[n+]1ccc(C#N)cc1.O=S(=O)([N-]S(=O)(=O)C(F)(F)F)C(F)(F)F")
4.39
>>> result_value("C#CCCCCC [1-heptyne] + CCCC[n+]1ccc(C#N)cc1.O=S(=O)([N-]S(=O)(=O)C(F)(F)F)C(F)(F)F")
7.3
>>> result_value("O [water] + CCCC[n+]1ccc(C#N)cc1.O=S(=O)([N-]S(=O)(=O)C(F)(F)F)C(F)(F)F")
2.33
>>> result_value("C=CCCC [1-pentene] + CCCC[n+]1ccc(C#N)cc1.O=S(=O)([N-]S(=O)(=O)C(F)(F)F)C(F)(F)F")
9.41
>>> result_value("Cc1ccccc1 [toluene] + CCCC[n+]1ccc(C#N)cc1.O=S(=O)([N-]S(=O)(=O)C(F)(F)F)C(F)(F)F")
1.78
>>> result_value("C1CCCCCC1 [cycloheptane] + CCCC[n+]1ccc(C#N)cc1.O=S(=O)([N-]S(=O)(=O)C(F)(F)F)C(F)(F)F")
16.7
>>> result_value("CC(C)=O [acetone] + CCCC[n+]1ccc(C#N)cc1.O=S(=O)([N-]S(=O)(=O)C(F)(F)F)C(F)(F)F")
0.479
>>> result_value("C=CCCCCCCCC [1-decene] + CCCC[n+]1ccc(C#N)cc1.O=S(=O)([N-]S(=O)(=O)C(F)(F)F)C(F)(F)F")
51.8
>>> result_value("CC(C)(C)O [2-methylpropan-2-ol] + CCCC[n+]1ccc(C#N)cc1.O=S(=O)([N-]S(=O)(=O)C(F)(F)F)C(F)(F)F")
1.8
>>> result_value("CCOCC [diethyl ether] + CCCC[n+]1ccc(C#N)cc1.O=S(=O)([N-]S(=O)(=O)C(F)(F)F)C(F)(F)F")
3.44
>>> result_value("C1CCOC1 [tetrahydrofuran] + CCCC[n+]1ccc(C#N)cc1.O=S(=O)([N-]S(=O)(=O)C(F)(F)F)C(F)(F)F")
0.779
>>> result_value("CCC(=O)CC [pentan-3-one] + CCCC[n+]1ccc(C#N)cc1.O=S(=O)([N-]S(=O)(=O)C(F)(F)F)C(F)(F)F")
0.889
>>> result_value("CCCO [propan-1-ol] + CCCC[n+]1ccc(C#N)cc1.O=S(=O)([N-]S(=O)(=O)C(F)(F)F)C(F)(F)F")
1.88
>>> result_value("COC(C)(C)C [2-methoxy-2-methylpropane] + CCCC[n+]1ccc(C#N)cc1.O=S(=O)([N-]S(=O)(=O)C(F)(F)F)C(F)(F)F")
3.45
